Values compiled from the OligoGym collection.

Parameter: sensor-assay potency score (higher = more potent). Scope: all listed entries.
Biological target: SEZ6L
Assay: pooled miR-30 sensor sort-seq; sequence = guide strand; further: reference of the scale not given here
Settings: shRNA
// return a plain number; no unit text

TCCAGATACAATCTTCACCTTC; -0.983
TTATAGGTCGGGTCGGATGTAG; -0.637
TTGGTATCCATTTTCAGGCAGC; -0.526
TTGGAGAAGCTCACACTGCAGA; -0.466

Find the measured sensor-assay potency score (higher = more potent) of TAGATGGTCAAGATGTCACTGT with SEZ6L as test system.
-0.115

###

Target: NDUFA7
Experiment: pooled miR-30 sensor sort-seq; sequence = guide strand
Details: shRNA
Below is a list of entries, each paired with its recorded sensor-assay potency score (higher = more potent) value.
# output: bare number, no unit

Example entries and their recorded answers appear below.
ATTGTTGGAGAGCTTGTGGCTA; -0.402
TAAAACTAGAAGTGATACCTGA; 0.222
TACAGCAGAGCTCTCTGCTGGC; -0.355
TTGTTGGAGAGCTTGTGGCTAG; -0.163
AATTAGGTCACATTCTCCCTGG; -0.0171

Assign sensor-assay potency score (higher = more potent) to the following record: TCTCAGTGGCAGCTACAGCAGA
-0.927

Tell me measured sensor-assay potency score (higher = more potent) for AGGAGCTGGAGTCACCGCCTTC please.
-1.6

Answer with the recorded sensor-assay potency score (higher = more potent) for the sequence listed here: TAGCGTAGCTGCAGCTTCCCCT
-0.864

###

Target: KRCC1
Assay: pooled miR-30 sensor sort-seq; sequence = guide strand
Details: shRNA
Mark condition not met for sensor-assay potency score (higher = more potent) values under -0.2, and condition met for everything at or above.

Worked set:
TTGATGAGTACTGGTACTGTTA; condition not met
TTCTGTACTGACATGTACGGTT; condition met
TTATCTGAGGAGAAGTGCTTGT; condition met
TTTTTCTGAGAAACAGTCCCTC; condition met
TTCTTGTTGATTAAAGTTCAGG; condition not met

# ---- query sequence ----
Does sensor-assay potency score (higher = more potent) meet or surpass -0.2 for TTCTCTTATGCTTAGACCGCTC ?
condition not met

###

# sensor-assay potency score (higher = more potent) listing for each entry below
Target: VAMP8
Experiment: pooled miR-30 sensor sort-seq; sequence = guide strand
Details: shRNA
Number, no unit, nothing else.

Solved entries:
AAGGACAATCATCTTCACGTTC; -0.269
ATCTTCACGTTCTTCCACCAGA; -1.17
ATGATAAAAACAATCACGCAGA; -0.843

Attention now shifts to the item below.
Return sensor-assay potency score (higher = more potent) (reported value) for this sequence: TTTTCGAGCCACCTTCTGCGAT
-1.17

###

Target: MED17
Experiment: pooled miR-30 sensor sort-seq; sequence = guide strand
Conditions: shRNA
Kindly return Condition met if reported sensor-assay potency score (higher = more potent) is no lower than -0.2; return Condition not met if it is lower.

TATCTTTTTATCCAGATCGAGA; Condition not met
TACACTAGGTGTCTCAACTGGT; Condition met
TATTACTGCACAGTCATCTTAC; Condition not met
TATTATTTTACATCTTGTCATA; Condition not met

Assess whether reported sensor-assay potency score (higher = more potent) for TTTTATTCCACTGAACTTCTTT sits at -0.2 or higher.
Condition met

Quick check, sensor-assay potency score (higher = more potent) >= -0.2? TTTATGAAACTCTCTAATCAGT
Condition not met

Check if sensor-assay potency score (higher = more potent) >= -0.2 (inclusive). Item: TTTACATAAGAGAACATTCTGT
Condition met

Can TTCAGGTATCTTTTTATCCAGA be said to have sensor-assay potency score (higher = more potent) at or above -0.2?
Condition not met

Could you please find out whether TTCTGTAGCTCAGATCTCCGAG has sensor-assay potency score (higher = more potent) that meets -0.2 or exceeds it?
Condition met

###

Target: DNAL4
Test: pooled miR-30 sensor sort-seq; sequence = guide strand
Settings: shRNA
Catalogue of sensor-assay potency score (higher = more potent) values
Keep it simple and answer with nothing but the number.

Tell me its sensor-assay potency score (higher = more potent) on DNAL4: TCTCTTTGATCATCTTGGCGGC
-0.315

Report value only: sensor-assay potency score (higher = more potent), DNAL4, ATTGTCTCTTTGATCATCTTGG
0.417

###

Target: PALM2-AKAP2
Assay: pooled miR-30 sensor sort-seq; sequence = guide strand
Settings: shRNA
value_type: sensor-assay potency score (higher = more potent)
Keep it simple and answer with nothing but the number.

Worked cases, sensor-assay potency score (higher = more potent) given:
TTCTAATGCAGTATTGTTCTTT; 0.398
TTGAACAGGAGAAGACACCTGA; 1.01
TTTCTCATGCTCGTCATCCTCA; 0.127
TTGTTCTTTCTCATGCTCGTCA; 0.379
TTAGTCAGTGGCTTGTCTGAGT; 0.113

Given TTGAATGGCATTCTGCACCAGG , respond with its sensor-assay potency score (higher = more potent).
-0.555

Tell us which sensor-assay potency score (higher = more potent) value is on record for TTGACAGATCTTGAGAACTGAT
-0.51

Please report sensor-assay potency score (higher = more potent) for the following sequence: TCTGGCAACATCATTATCCAGG
-0.478

Give the reported sensor-assay potency score (higher = more potent) for this sequence. TTTTAGATTTGTGTGTCTCATA
-0.987

###

Molecular target: LILRA4
Experiment: pooled miR-30 sensor sort-seq; sequence = guide strand
Details: shRNA
value_type: sensor-assay potency score (higher = more potent)
The reply should be a number, written without any unit.

AATCTGACTTCTTTTGTGCTGG; 0.00913
TCCTCAATCAGAGTGAACCTGC; -0.933

Given TTTTCATAGCCGTAGCATCTGA , respond with its sensor-assay potency score (higher = more potent).
-1.2

Indicate its recorded sensor-assay potency score (higher = more potent); the sequence in question is TTGTGTGCGCCGTAGCATCTGT
-0.739

Look up sensor-assay potency score (higher = more potent) of TTCTCTCCTGAGGTCACCGTGG and report it.
-1.07

Provide measured sensor-assay potency score (higher = more potent) value, entry: TTGATCTCAGACGCAACGGGGG
-1.08

Return reported sensor-assay potency score (higher = more potent). Input sequence: TAGGTTTTCTGCCTGCACCCGG
-0.532

# return recorded sensor-assay potency score (higher = more potent) for input TAATGGAGGAAGCATCTTCTAC
-1.03

###

Target: MEX3D
Assay: pooled miR-30 sensor sort-seq; sequence = guide strand
Details: shRNA
Label scheme, based on sensor-assay potency score (higher = more potent): LOW (below -1), MEDIUM (-1 to below -0.3), HIGH (-0.3 or more)

TTGCCGGAGCCGCTGTAGGGGC; LOW
TTGGCGTGGAAGTCGCTGTCGG; HIGH
TAGGTGTGCGTCCGCTGCTGGA; LOW

Note: attention shifts to another entry.
Which class does TTGACCGTGGAGCAGCCGCTGA fall in?
LOW

###

# key: entry, value: sensor-assay potency score (higher = more potent)
Molecular target: HSP90AA1
Assay: pooled miR-30 sensor sort-seq; sequence = guide strand
Conditions: shRNA
Give your answer as a number; write no unit.

TACAACTTTAAGCAGAATGTGA; -0.45
TTTGTTGCAACATCTCACGGGA; 0.467
TTTCTCTTCTTCATCCTCTGGA; 0.444
TTGATCATCCTGTAGATCCTGT; 0.84
TTGAGTTGTCTCTTAGGGCTTG; 0.45

Supply recorded sensor-assay potency score (higher = more potent) for TTATCCATGATGAAAACTCTGC here.
-0.426

Identify measured sensor-assay potency score (higher = more potent) corresponding to TTGATCGATGTACTTTTCCTTA
-0.594

Give the measured sensor-assay potency score (higher = more potent) for TCGGTTTGACACAACCACCTTT
-0.307

Give the measured sensor-assay potency score (higher = more potent) for TACAATTTGATGTTGTTCTTTT
-0.348

###

Biological target: FNBP1
Assay: pooled miR-30 sensor sort-seq; sequence = guide strand
Settings: shRNA
Reported sensor-assay potency score (higher = more potent) values for a set of sequences
Just the number, please.

TTTACTAGATTCAAGCTGCTTC; 0.524
TTTATTTAACTCATCGACTTTC; -0.243
TAACTCATCGACTTTCTGCTGC; 0.71
TTTATAAGCTTCTATTACCAGC; -0.679

Please report the measured sensor-assay potency score (higher = more potent) for TTTGGTGACGTATTTGAGCTTG
0.00299

Supply measured sensor-assay potency score (higher = more potent) of TATACTTGTATTCTTCTTCCTC in your reply.
0.713

Recall and state the measured sensor-assay potency score (higher = more potent) for TTTCTGGGTCTCTACTCGCAGT .
-1.12

Quote sensor-assay potency score (higher = more potent) reported for TAGAATTAGTGCAACACACATA please.
-0.218
